Each entry below carries its recorded Inhibition.
- Tested on: Cricetinae gen. sp.
- Assay: Compound was evaluated in vivo for inhibition of HLE-induced hemorrhage in hamster lung at 200 microg, 2 hr after administration prior to HLE
- Type: functional, Cricetulus griseus
Readout name: Inhibition (%)

compound=CO[C@H]1C(=O)N2C(C(=O)N(C)[C@@H](C)C(=O)O)=C(COC(C)=O)CS(=O)(=O)[C@H]12 readout_name=Inhibition observed_measurement=81
compound=CO[C@H]1C(=O)N2C(C(=O)N(C)CC(=O)O)=C(COC(=O)c3ccccc3)CS(=O)(=O)[C@H]12 readout_name=Inhibition observed_measurement=58
compound=CO[C@H]1C(=O)N2C(C(=O)N(C)CC(=O)OC(C)(C)C)=C(CSc3nc(=O)c(=O)[nH]n3C)CS(=O)(=O)[C@H]12 readout_name=Inhibition observed_measurement=84
compound=CC[C@H]1C(=O)N2C(C(=O)N(C)CC(=O)O)=C(COC(=O)c3ccc(C(=O)O)cc3)CS(=O)(=O)[C@H]12 readout_name=Inhibition observed_measurement=59
compound="CO[C@H]1C(=O)N2C(C(=O)N3CC(O)CC3C(=O)O)=C(COC(C)=O)CS(=O)(=O)[C@H]12 (stereo not given in full)" readout_name=Inhibition observed_measurement=81

====

- Assay: Half-life value of the compound.
- Format: ADME
Readout name: half-life (h)

compound=CO[C@H]1C(=O)N2C(C(=O)N3CCC[C@H]3C(=O)O)=C(COC(C)=O)CS(=O)(=O)[C@H]12 readout_name=half-life relation_qualifier== observed_measurement=21
compound="CO[C@H]1C(=O)N2C(C(=O)N(C)CC(=O)O)=C(COC(C)=O)C(C)S(=O)(=O)[C@H]12 (stereo partly drawn)" readout_name=half-life relation_qualifier== observed_measurement=8
compound=CC[C@H]1C(=O)N2C(C(=O)OCc3ccc(C(=O)O)cc3)=C(COC(C)=O)CS(=O)(=O)[C@H]12 readout_name=half-life relation_qualifier== observed_measurement=40
compound=CC[C@H]1C(=O)N2C(C(=O)N(C)CC(=O)O)=C(COC(C)=O)CS(=O)(=O)[C@H]12 readout_name=half-life relation_qualifier=> observed_measurement=50
compound=CO[C@H]1C(=O)N2C(C(=O)N3CCOCC3)=C(COC(C)=O)CS(=O)(=O)[C@H]12 readout_name=half-life relation_qualifier== observed_measurement=13
compound=CO[C@H]1C(=O)N2C(C(=O)N(C)CCC(=O)O)=C(COC(C)=O)CS(=O)(=O)[C@H]12 readout_name=half-life relation_qualifier== observed_measurement=24
compound=CO[C@H]1C(=O)N2C(C(=O)OCc3ccc(C(=O)O)cc3)=C(COC(C)=O)CS(=O)(=O)[C@H]12 readout_name=half-life relation_qualifier== observed_measurement=5
compound=CO[C@H]1C(=O)N2C(C(=O)N3CCCC3)=C(CSc3nc(=O)c(=O)[nH]n3C)CS(=O)(=O)[C@H]12 readout_name=half-life relation_qualifier== observed_measurement=20

====

- Assay: Half-life value of the compound.
- Type: ADME
Readout name: half-life

molecule=CO[C@H]1C(=O)N2C(C(=O)N(C)CC(=O)O)=C(CSc3nc(=O)c(=O)[nH]n3C)CS(=O)(=O)[C@H]12 observed_measurement="22 h"
molecule="CO[C@H]1C(=O)N2C(C(=O)N3CCCC3C(=O)O)=C(CSc3nc(=O)c(=O)[nH]n3C)CS(=O)(=O)[C@H]12 (stereo not given in full)" observed_measurement="46 h"
molecule=CO[C@H]1C(=O)N2C(C(=O)N3CCCC3)=C(COC(C)=O)CS(=O)(=O)[C@H]12 observed_measurement="16 h"
molecule=CO[C@H]1C(=O)N2C(C(=O)N(C)CC(=O)O)=C(COC(C)=O)CS(=O)(=O)[C@H]12 observed_measurement="13 h"
molecule=CO[C@H]1C(=O)N2C(C(=O)N3CCC[C@@H]3C(=O)O)=C(COC(C)=O)CS(=O)(=O)[C@H]12 observed_measurement="< 5 h"

====

- Subject of test: Neutrophil elastase (Homo sapiens) (UniProt P08246)
- Sequence (P08246 whole entry): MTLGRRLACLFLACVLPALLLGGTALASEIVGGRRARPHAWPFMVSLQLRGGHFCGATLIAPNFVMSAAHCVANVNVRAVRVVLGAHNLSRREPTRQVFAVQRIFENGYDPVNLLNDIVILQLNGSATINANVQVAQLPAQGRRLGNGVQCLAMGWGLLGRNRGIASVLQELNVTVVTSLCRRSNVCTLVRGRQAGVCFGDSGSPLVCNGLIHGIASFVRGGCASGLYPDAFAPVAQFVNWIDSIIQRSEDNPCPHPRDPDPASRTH
The recorded k obs / 1 of each item maps onto one of these classes: 0 = under 700 M⁻¹ s⁻¹, 1 = from 700 M⁻¹ s⁻¹ up to 6000 M⁻¹ s⁻¹, 2 = 6000 M⁻¹ s⁻¹ and over

compound="CO[C@H]1C(=O)N2C(C(=O)N3CC(O)CC3C(=O)O)=C(COC(C)=O)CS(=O)(=O)[C@H]12 (stereo partly drawn)" answer_label=1
compound=CC[C@H]1C(=O)N2C(C(=O)OCc3ccc(C(=O)O)cc3)=C(COC(C)=O)CS(=O)(=O)[C@H]12 answer_label=1
compound=CO[C@H]1C(=O)N2C(C(=O)NC(C)(C)C)=C(COC(C)=O)CS(=O)(=O)[C@H]12 answer_label=1
compound=CO[C@H]1C(=O)N2C(C(=O)OC(C)(C)C)=C(CSc3nnnn3CC(=O)O)CS(=O)(=O)[C@H]12 answer_label=1
compound=CO[C@H]1C(=O)N2C(C(=O)N3CCOCC3)=C(COC(C)=O)CS(=O)(=O)[C@H]12 answer_label=2
compound=CO[C@H]1C(=O)N2C(C(=O)N(C)CCC(=O)O)=C(COC(C)=O)CS(=O)(=O)[C@H]12 answer_label=0
compound="CO[C@H]1C(=O)N2C(C(=O)N3CCC(O)C3)=C(COC(C)=O)CS(=O)(=O)[C@H]12 (stereo partly drawn)" answer_label=2
compound=CO[C@H]1C(=O)N2C(C(=O)N(C)CC(=O)O)=C(COC(=O)c3ccccc3)CS(=O)(=O)[C@H]12 answer_label=0
compound=CC[C@H]1C(=O)N2C(C(=O)N(C)CC(=O)O)=C(COC(=O)c3ccc(C(=O)O)cc3)CS(=O)(=O)[C@H]12 answer_label=0
compound=CO[C@H]1C(=O)N2C(C(=O)OC(C)(C)C)=C(COC(=O)N[C@@H](Cc3ccccc3)C(=O)O)CS(=O)(=O)[C@H]12 answer_label=2
compound="CO[C@H]1C(=O)N2C(C(=O)N3CCC(C(=O)O)C3)=C(COC(C)=O)CS(=O)(=O)[C@H]12 (stereo partly drawn)" answer_label=1
compound=CO[C@H]1C(=O)N2C(C(=O)N(C)CC(=O)O)=C(CSc3nnnn3C)CS(=O)(=O)[C@H]12 answer_label=0
compound=CO[C@H]1C(=O)N2C(C(=O)N(C)[C@H](C)C(=O)O)=C(COC(C)=O)CS(=O)(=O)[C@H]12 answer_label=1
compound=CO[C@H]1C(=O)N2C(C(=O)N3CCC[C@H]3C(=O)O)=C(COC(C)=O)CS(=O)(=O)[C@H]12 answer_label=1
compound=CO[C@H]1C(=O)N2C(C(=O)N3CCCC3)=C(COC(C)=O)CS(=O)(=O)[C@H]12 answer_label=2
compound=CO[C@H]1C(=O)N2C(C(=O)OC(C)(C)C)=C(CSc3nc(=O)c(=O)[nH]n3C)CS(=O)(=O)[C@H]12 answer_label=2
compound=CO[C@H]1C(=O)N2C(C(=O)N(C)CC(=O)O)=C(COC(=O)NCc3ccccc3)CS(=O)(=O)[C@H]12 answer_label=0

====

- System: Cricetinae gen. sp.
- Assay: Compound was evaluated in vivo for inhibition of HLE-induced hemorrhage in hamster lung at 30microg, 30 min after administration prior to HLE
- Assay type: functional, Cricetulus griseus
Returns one of TRUE or FALSE; TRUE when Inhibition is >= 50%.

molecule=CO[C@H]1C(=O)N2C(C(=O)N(C)CC(=O)O)=C(CSc3ccccn3)CS(=O)(=O)[C@H]12 subject_of_test="Cricetinae gen. sp." answer_label=FALSE
molecule=CO[C@H]1C(=O)N2C(C(=O)N(C)CC(=O)N(C)CCC(=O)O)=C(COC(C)=O)CS(=O)(=O)[C@H]12 subject_of_test="Cricetinae gen. sp." answer_label=TRUE
molecule="CO[C@H]1C(=O)N2C(C(=O)N3CC(O)CC3C(=O)O)=C(COC(C)=O)CS(=O)(=O)[C@H]12 (stereo partly specified)" subject_of_test="Cricetinae gen. sp." answer_label=TRUE
molecule=CO[C@H]1C(=O)N2C(C(=O)N(C)CC(=O)O)=C(COC(=O)NCc3ccccc3)CS(=O)(=O)[C@H]12 subject_of_test="Cricetinae gen. sp." answer_label=TRUE
molecule=CO[C@H]1C(=O)N2C(C(=O)N(C)CC(=O)O)=C(COC(=O)c3ccccc3)CS(=O)(=O)[C@H]12 subject_of_test="Cricetinae gen. sp." answer_label=TRUE
molecule=CO[C@H]1C(=O)N2C(C(=O)N(CC(=O)O)Cc3ccccc3)=C(COC(C)=O)CS(=O)(=O)[C@H]12 subject_of_test="Cricetinae gen. sp." answer_label=FALSE

====

- Subject of test: Neutrophil elastase (Homo sapiens) (UniProt P08246)
Each entry below carries its recorded k obs / 1.
Readout name: k obs / 1 (M⁻¹ s⁻¹)

chemical_smiles=CO[C@H]1C(=O)N2C(C(=O)N(C)Cc3ccc(C(=O)O)cc3)=C(COC(C)=O)CS(=O)(=O)[C@H]12 quantity_unit="M⁻¹ s⁻¹" observed_measurement=8600
chemical_smiles=CO[C@H]1C(=O)N2C(C(=O)N(C)CCC(=O)O)=C(CSc3nc(=O)c(=O)[nH]n3C)CS(=O)(=O)[C@H]12 quantity_unit="M⁻¹ s⁻¹" observed_measurement=1000
chemical_smiles=CC[C@H]1C(=O)N2C(C(=O)N(C)CC(=O)O)=C(COC(C)=O)CS(=O)(=O)[C@H]12 quantity_unit="M⁻¹ s⁻¹" observed_measurement=30
chemical_smiles=CO[C@H]1C(=O)N2C(C(=O)N(C)[C@@H](C)C(=O)O)=C(COC(C)=O)CS(=O)(=O)[C@H]12 quantity_unit="M⁻¹ s⁻¹" observed_measurement=500

Values compiled from ChEMBL document CHEMBL1125311.
